The measured values listed here are drawn from patent US8691846B2.

System tested: human orexin-2 (hOX2) receptors (Homo sapiens, UniProt O43614)
Construct: expressed in transfected cells
Sequence (O43614 whole entry): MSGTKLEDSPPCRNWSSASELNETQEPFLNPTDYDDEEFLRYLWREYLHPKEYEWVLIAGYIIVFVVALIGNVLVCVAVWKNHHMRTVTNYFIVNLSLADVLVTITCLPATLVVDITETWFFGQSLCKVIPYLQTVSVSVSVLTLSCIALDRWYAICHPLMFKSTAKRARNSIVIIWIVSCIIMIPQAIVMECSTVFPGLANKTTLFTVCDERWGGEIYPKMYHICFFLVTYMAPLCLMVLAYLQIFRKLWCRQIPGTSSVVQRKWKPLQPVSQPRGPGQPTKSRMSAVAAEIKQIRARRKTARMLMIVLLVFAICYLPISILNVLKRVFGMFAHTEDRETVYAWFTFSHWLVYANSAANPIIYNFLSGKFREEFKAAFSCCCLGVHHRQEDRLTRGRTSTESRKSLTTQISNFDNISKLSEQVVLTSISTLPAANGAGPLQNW
Test description: Intracellular Ca2+ mobilization assay (FLIPR), antagonism of orexin-A in CHO(dHFr-) cells expressing hOX2
Format: cell-based
Test parameters: Table 1; CHO(dHFr-)-OX2R cells; orexin-A at EC80 as agonist; Kb=IC50/(1+[A]/EC50); read-out: Kb hOx2
Is Kb at least 300 nM? Then satisfied. If not, not satisfied.

See these solved cases before continuing.
Compound: O=C(C1CCCN(S(=O)(=O)c2ccc(F)cc2)C1)N1CCCC1c1ccccc1 (stereo not drawn) [Example 13]
System tested: human orexin-2 (hOX2) receptors (Homo sapiens, UniProt O43614)
Discrete label: satisfied

Compound: O=C(C1CCCN(S(=O)(=O)c2ccc(F)cc2)C1)N1CCCCC1c1ccccc1 (stereo not drawn) [Example 6]
System tested: human orexin-2 (hOX2) receptors (Homo sapiens, UniProt O43614)
Discrete label: satisfied

Compound: O=C(C1CCCN(S(=O)(=O)c2ccccc2Cl)C1)N1CCCC1c1cc(Cl)cc(Cl)c1 (stereo not drawn) [Example 19]
System tested: human orexin-2 (hOX2) receptors (Homo sapiens, UniProt O43614)
Discrete label: satisfied

Compound: O=C(C1CCCN(S(=O)(=O)c2cccc(Cl)c2)C1)N1CCCCC1c1ccccc1 (stereo not drawn) [Example 5]
System tested: human orexin-2 (hOX2) receptors (Homo sapiens, UniProt O43614)
Discrete label: satisfied

Compound: O=C(C1CCCN(S(=O)(=O)c2ccccc2Cl)C1)N1CCCC1c1ccc(Cl)c(Cl)c1 (stereo not drawn) [Example 18]
System tested: human orexin-2 (hOX2) receptors (Homo sapiens, UniProt O43614)
Discrete label: satisfied

query: Determine whether this compound has Kb no lower than 300 nM: COc1cccc(S(=O)(=O)N2CCCC(C(=O)N3CCCC3c3ccccc3)C2)c1 (stereo not drawn) [Example 9]
result: not satisfied

query: Determine whether this compound has Kb no lower than 300 nM: O=C(C1CCCN(S(=O)(=O)c2ccccc2Cl)C1)N1CCCCC1c1ccccc1 (stereo not drawn) [Example 4]
result: not satisfied

query: Determine whether this compound has Kb no lower than 300 nM: O=C(C1CCCN(S(=O)(=O)c2ccccc2)C1)N1CCCC1c1ccccc1 (stereo not drawn) [Example 15]
result: not satisfied
